All values here come from the supplement of paper PMC7801607.

Test system: HepG2-A16-CD81
Experiment: CC50; higher = less toxic
quantity: CC50

{"compound": "Nc1nc(Nc2ccc3nc(-c4ccc(F)cc4)cc(N)c3c2)cc(-c2ccccc2)n1", "quantity": "CC50", "result": "> 5 µM"}
{"compound": "CN(C)CCCOc1ccc(-c2ccc3ncc4c(c3c2)n(C2CCOCC2)c(=O)n4C)cn1", "quantity": "CC50", "result": "> 5 µM"}
{"compound": "COc1cc(NCc2ccc3nc(N)nc(N)c3c2C)cc(OC)c1OC", "quantity": "CC50", "result": "1.66 µM"}
{"compound": "Cn1cc(NC(=O)c2cc(NC(=O)c3ccc(/C=C/c4cnc5ccccc5c4)cc3)cn2C)cc1C(=O)NCCN1CCOCC1", "quantity": "CC50", "result": "> 5 µM"}
{"compound": "CC(C)/N=c1\\cc2n(-c3ccc(Cl)cc3)c3ccccc3nc-2cc1Nc1ccc(Cl)cc1", "quantity": "CC50", "result": "> 5 µM"}
{"compound": "CCCCC(CC)CNC(=N)NC(=N)NCCCCCCNC(=N)NC(=N)NCC(CC)CCCC (configuration not stated)", "quantity": "CC50", "result": "4.13 µM"}

Looking for the measured CC50 of N=c1n(CCN2CCCCC2)c2ccccc2n1CC(O)COc1ccc(Cl)cc1Cl (configuration not stated) , can you help? > 5 µM
